# Tested on: DC2.4 cells
# measurement-description: In vitro transfection of DC2.4 cells with EGFP mRNA LNP preparation (flow cytometry)
# Assay type: cell-based, mouse
# study-conditions: DC2.4 cells, EGFP mRNA LNP, 200 ng mRNA per well, flow cytometry

[
  {
    "compound": "CCCCCCCCCCCCC(O)CN(CCOCCOCCOCCN(CCOCCOCCOCCN(CC(O)CCCCCCCCCCCC)CC(O)CCCCCCCCCCCC)CCN1CCN(C)CC1)CC(O)CCCCCCCCCCCC (centres unmarked) [H-C14]",
    "Positive Rate (EGFP)": "66.8%"
  },
  {
    "compound": "CCCCCCCCCCCCCCCCC(O)CN(CCOCCOCCN(CCOCCOCCN(CC(O)CCCCCCCCCCCCCCCC)CC(O)CCCCCCCCCCCCCCCC)CCN1CCN(C)CC1)CC(O)CCCCCCCCCCCCCCCC (centres unmarked) [G-C18]",
    "Positive Rate (EGFP)": "63.9%"
  },
  {
    "compound": "CCCCCCCCCCCCC(O)CN(CCOCCN(CCOCCN(CC(O)CCCCCCCCCCCC)CC(O)CCCCCCCCCCCC)CCN1CCN(CCOCCN(CC(O)CCCCCCCCCCCC)CC(O)CCCCCCCCCCCC)CC1)CC(O)CCCCCCCCCCCC (centres unmarked) [B-C14]",
    "Positive Rate (EGFP)": "90.2%"
  },
  {
    "compound": "CCCCCCCCCCCCCCC(O)CN(CCOCCN(CCOCCN(CC(O)CCCCCCCCCCCCCC)CC(O)CCCCCCCCCCCCCC)CCN1CCN(CCO)CC1)CC(O)CCCCCCCCCCCCCC (centres unmarked) [J-C16]",
    "Positive Rate (EGFP)": "62.0%"
  },
  {
    "compound": "CCCCCCCCCCCCC(O)CN(CCN(CCN1CCN(CCO)CC1)CCN(CC(O)CCCCCCCCCCCC)CC(O)CCCCCCCCCCCC)CC(O)CCCCCCCCCCCC (centres unmarked) [I-C14]",
    "Positive Rate (EGFP)": "62.7%"
  }
]

====

Cell Viability values by entry
# Tested on: PBMC cells
# measurement-description: In vitro transfection of PBMC cells with EGFP mRNA LNP preparation (flow cytometry)
# Format: cell-based
# Design: concentration or dose not given beside the values
# study-conditions: PBMCs, LNP preparation added with ApoE4
recorded-endpoint: Cell Viability (%)

[
  {
    "molecule": "CCCCCCCCCCCCC(O)CN(CCOCCN(CCOCCN(CC(O)CCCCCCCCCCCC)CC(O)CCCCCCCCCCCC)CCN1CCN(CCOCCN(CC(O)CCCCCCCCCCCC)CC(O)CCCCCCCCCCCC)CC1)CC(O)CCCCCCCCCCCC (stereo not shown) [B-C14]",
    "tested-target": "PBMC cells",
    "recorded-endpoint": "Cell Viability",
    "readout-units": "%",
    "result": 90.00
  },
  {
    "molecule": "CCCCCCCCCCCCC(O)CN(CCOCCOCCOCCN(CCOCCOCCOCCN(CC(O)CCCCCCCCCCCC)CC(O)CCCCCCCCCCCC)CCN1CCN(C)CC1)CC(O)CCCCCCCCCCCC (stereo not shown) [H-C14]",
    "tested-target": "PBMC cells",
    "recorded-endpoint": "Cell Viability",
    "readout-units": "%",
    "result": 81.70
  },
  {
    "molecule": "CCCCCCCCCCCCC(O)CN(CCOCCN(CCOCCN(CC(O)CCCCCCCCCCCC)CC(O)CCCCCCCCCCCC)CCN1CCN(C)CC1)CC(O)CCCCCCCCCCCC (stereo not shown) [F-C14]",
    "tested-target": "PBMC cells",
    "recorded-endpoint": "Cell Viability",
    "readout-units": "%",
    "result": 83.20
  },
  {
    "molecule": "CCCCCCCCCCC(O)CN(CCOCCOCCN(CCOCCOCCN(CC(O)CCCCCCCCCC)CC(O)CCCCCCCCCC)CCN1CCN(CCOCCOCCN(CC(O)CCCCCCCCCC)CC(O)CCCCCCCCCC)CC1)CC(O)CCCCCCCCCC (stereo not shown) [C-C12]",
    "tested-target": "PBMC cells",
    "recorded-endpoint": "Cell Viability",
    "readout-units": "%",
    "result": 89.30
  }
]
